Target: recombinant human CK2 (Homo sapiens, UniProt P68400)
Construct: purchased Upstate
Sequence (P68400 whole entry): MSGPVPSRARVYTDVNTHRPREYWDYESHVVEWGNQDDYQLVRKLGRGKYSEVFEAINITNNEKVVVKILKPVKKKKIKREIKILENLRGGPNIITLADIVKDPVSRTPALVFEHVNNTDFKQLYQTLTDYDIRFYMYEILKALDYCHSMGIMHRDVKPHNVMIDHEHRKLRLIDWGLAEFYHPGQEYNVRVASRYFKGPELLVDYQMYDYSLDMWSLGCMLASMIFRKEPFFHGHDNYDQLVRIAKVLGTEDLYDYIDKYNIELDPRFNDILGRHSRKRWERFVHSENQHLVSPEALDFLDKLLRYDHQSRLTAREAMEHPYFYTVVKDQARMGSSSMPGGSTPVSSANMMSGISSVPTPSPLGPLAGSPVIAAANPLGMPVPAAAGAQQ
Sequence (P67870 whole entry partner): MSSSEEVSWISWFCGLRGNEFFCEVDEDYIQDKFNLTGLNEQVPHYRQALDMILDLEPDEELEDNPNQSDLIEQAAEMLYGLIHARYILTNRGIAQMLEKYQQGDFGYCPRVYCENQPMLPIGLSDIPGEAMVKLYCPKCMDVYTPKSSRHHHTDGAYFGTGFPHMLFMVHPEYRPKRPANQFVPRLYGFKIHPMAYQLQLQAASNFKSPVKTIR
Experiment: Cell-free CK2 assay
Type: biochemical
Conditions: read-out: CK2: % inh 500 nM
test readout: inhibition at 0.5 µM (%)

(A) COC(=O)c1ccc2c(c1)nc(-c1cnn(C)c1)c1nc(NC3CC3)ncc12
(B) O=C(NC1CC1)c1ccc2c(c1)nc(-c1ccccc1)c1ccncc12
Query block: Out of A and B , name the one with the higher inhibition at 0.5 µM. // return label of chosen record
Result block: A
(A: 10%, B: -9%)

* * *

Test system: MDA-MB231
Experiment: Cell proliferation assay (Alamar Blue), MDA-MB231
Type: cell-based
Conditions: Homo sapiens, MDA-MB-231; MDA-MB231 cell line
pIC50: −log10 of the molar value.
List of pIC50 values.

Here's what some known entries look like.
O=C(O)c1ccc2c(c1)nc(-c1ccsc1)c1ccncc12 = < 5.00
Nc1cccc(-c2nc3cc(C(=O)O)ccc3c3cnccc23)c1 = < 5.00
Cn1cc(-c2nc3cc(C(=O)O)ccc3c3cnccc23)cn1 = < 5.00
Cn1cc(-c2nc3cc(C(=O)O)ccc3c3cnc(NC4CC4)nc23)cn1 = < 4.52

Query block: Recorded pIC50 of `COC(=O)c1ccc2c(c1)nc(-c1ccccc1)c1nc(S(C)(=O)=O)ncc12` , please.
Result block: 5.19

Query block: Recorded pIC50 of `Cn1cc(-c2nc3cc(C(=O)NC4CC4)ccc3c3cnc(NC4CC4)nc23)cn1` , please.
Result block: < 4.52

Query block: Recorded pIC50 of `O=C(O)c1ccc2c(c1)nc(-c1cccc(F)c1)c1ccncc12` , please.
Result block: 6.70
